System: M14 melanoma
Experiment: NCI-60 one-dose screen, 48 h
Settings: 10 µM unless noted
This is part of a sample that, as a whole, favours compounds with a hit. Of some 83,000 tested, about 20% had one in any assay. The source made the active and inactive calls. How the source made its calls: active means growth percent below 10; inactive means the rest.
Classes used: 1.0 = active, 0.0 = inactive

compound="Cc1cccc(NC(=O)[C@]23CCC(C)(C)CC2C2=CCC4[C@@]5(C)C[C@@H](O)[C@H](O)[C@@](C)(CO)C5CC[C@@]4(C)[C@]2(C)CC3)c1 (stereo partly drawn)" assigned_class=0.0
compound=CC(C)CSc1nc(NCCc2c[nH]c3ccccc23)c(C#N)c(-c2ccc(Cl)cc2)n1 assigned_class=0.0
compound=Cc1ccc(S(=O)(=O)c2nc(S(=O)(=O)c3ccc(C)cc3)c(N3CCC(O)CC3)s2)cc1 assigned_class=0.0
compound="CCOC(=O)C1=C(N)N(c2ccccc2)C2=C(C(=O)CC(C)(C)C2)C1c1ccc(Cl)cc1Cl (stereo not drawn)" assigned_class=0.0
compound="CCOC(=O)C1=C(N)N(c2ccccc2)C2=C(C(=O)CC(C)(C)C2)C1c1cccc(Cl)c1Cl (stereo not drawn)" assigned_class=0.0
compound=Brc1ccc(-c2n(Cc3ccc4ccccc4c3)c(-c3ccccc3)c(-c3ccccc3)[n+]2Cc2ccc3ccccc3c2)cc1 assigned_class=1.0
compound="CN(C)c1nc(NCCNS(=O)(=O)c2ccc(C3=Nc4c(N)nc(N)nc4NC(c4ccc(C(F)(F)F)cc4)C3)cc2)nc(Nc2ccc(F)cc2)n1 (stereo not drawn)" assigned_class=1.0
compound=O=C(CN1C(=O)/C(=C/c2ccccc2F)SC1=S)N1CCOCC1 assigned_class=0.0

----------
Tested on: UO-31 renal
Experiment: NCI-60 one-dose screen, 48 h (100 = growth as untreated, 0 = no growth, -100 = all killed)
Details: 10 µM unless noted
Compounds without any hit were thinned out: in the full panel of roughly 83,000, 20% have a hit.
Recorded growth by entry
Assay readout: growth (%)

molecule=N=C1N=C(SCc2nc3ccccc3[nH]2)NC(=O)/C1=C/c1ccc(Cl)cc1 quantitative_readout=70.5
molecule=Cn1cc(-c2cc3nc(-c4cn(C)c5ncc(Br)cc45)cc(N)n3n2)c2ccccc21 quantitative_readout=-36.3
molecule="CC1[C@H]2[C@H](C[C@H]3[C@@H]4CC=C5c6sc(Nc7ccccc7F)nc6CC[C@]5(C)[C@H]4CC[C@@]32C)O[C@]12CC[C@@H](C)CO2 (some centres not stated)" quantitative_readout=-93.1
molecule=O=C(c1ccccc1)c1ccc2nc(-c3cccc(Cl)c3)[nH]c2c1 quantitative_readout=95.4
molecule=COc1ccc(C(=O)/C=C/c2cccc(Cl)c2Cl)cc1S(N)(=O)=O quantitative_readout=-81.3
molecule=C#CCOc1ccc(/C=N/Nc2nc(-c3cc4cc(Br)ccc4oc3=O)cs2)cc1OC quantitative_readout=89.7
molecule=Cc1ccc(Cc2cnc(NC(=O)c3ccc(/C=C4\SC(=S)N(C)C4=O)cc3)s2)cc1 quantitative_readout=37.7
molecule=Clc1ccc(-c2ccc(OCCCN3CCN(c4ccncc4)CC3)cc2)cc1 quantitative_readout=66.3
molecule=Cn1cc(-c2cc(N)n3nc(-c4cn(C)c5ccccc45)cc3n2)c2cc(Cl)ccc21 quantitative_readout=-88.5
molecule=Cc1ccc(C(=O)CSc2nc3ccc(C)cc3c(=O)n2-c2ccc(F)cc2)cc1 quantitative_readout=43.8
molecule=COc1ccc2c(c1)c(-c1cc3nc(-c4cn(C)c5ncc(Br)cc45)cc(N)n3n1)cn2C quantitative_readout=-58.1
molecule=COc1ccc(-c2ccnc(SCc3cc4ccccc4[nH]c3=O)n2)cc1OC quantitative_readout=-73.4
molecule="Cc1ccccc1[C@H]1C(C(=O)c2ccc(Cl)cc2)C2(N[C@@H]1c1ccccc1)C(=O)Nc1ccc(Br)cc12 (some centres not stated)" quantitative_readout=14.1
molecule=COc1ccc(/C=C2\C(=N)N=C(SCc3nc4ccccc4[nH]3)NC2=O)cc1 quantitative_readout=77.8
molecule=O=C(COc1ccc(NC(=O)Nc2ccc(Cl)c(Cl)c2)cc1)N=Nc1c(O)[nH]c2ccc(Br)cc12 quantitative_readout=51.1
molecule=Cc1cnc(C(=O)NNc2nc3cc(F)ccc3n3c(C(=O)N4CC5CC(C4)N5)ccc23)cn1 quantitative_readout=23.3
molecule="COc1ccc2oc(=O)c(C3(C)NC(=O)c4c(/C=C/C(=O)OC(C)(C)C)cccc4N3)cc2c1 (configuration not stated)" quantitative_readout=25
molecule=Cc1cc2nc3c4ccccc4n(CCCN(C)C)c3nc2cc1C quantitative_readout=2.63
molecule=O=C(c1ccccc1)C(c1c[nH]c2ccccc12)c1c[nH]c2ccccc12 quantitative_readout=45
molecule=COC(=O)C[C@](O)(CCCC(C)(C)O)C(=O)O[C@H]1C(OC)=C[C@@]23CCCN2CCc2cc4c(cc2[C@@H]13)OCO4 quantitative_readout=30.6
molecule=CC(=O)Nc1ccc(-c2nc3cc(-c4ccc(O)cc4)ccc3n2C)cc1 quantitative_readout=30.8
molecule=C/C(=N\Nc1ccc(S(N)(=O)=O)cc1)c1ccc(N=Nc2c(Nc3ccccc3)[nH][nH]c2=O)cc1 quantitative_readout=86.1
molecule="C=C1CC[C@@H]2[C@]3(C)COC(c4cn(-c5ccccc5)nc4-c4ccccc4)O[C@@H]3CC[C@@]2(C)[C@@H]1C/C=C1/C(=O)OC[C@H]1O (some centres not stated)" quantitative_readout=-78.1
molecule="COc1c(F)ccc(C(=O)Nc2ccc3nc(NC(=O)C4CCCN(S(=O)(=O)c5ccc(Br)c(F)c5)C4)sc3c2)c1F (configuration not stated)" quantitative_readout=72.1
molecule=COc1cc(/C=C/C(=O)c2nnn(-c3ccc(Cl)cc3)c2C)cc(OC)c1OC quantitative_readout=54
molecule=COc1cc2oc(-c3cccc(C(=O)Nc4ccc(Cl)cc4)c3)cc(=O)c2c(OCCNC(=O)[C@H](CCC(=O)OC(C)(C)C)NC(=O)OC(C)(C)C)c1OC quantitative_readout=74.4
molecule=CN(C)c1ccnc(NCCCSC(c2ccccc2)(c2ccccc2)c2ccccc2)c1 quantitative_readout=28.9
molecule=COc1ccc(C2(SCCNCc3cc(N(C)C)ccn3)c3ccccc3C=Cc3ccccc32)cc1 quantitative_readout=33.7
molecule=CNC(=O)c1cccc(NC(=O)c2ccc3c(c2)nnn3/C(C#N)=C/c2ccccn2)c1 quantitative_readout=-7.22
molecule=O=C(Cn1nc(-c2ccccc2)ccc1=O)N/N=C/c1ccc(N2CCOCC2)cc1 quantitative_readout=75.8
molecule=N#Cc1c(-c2ccc(Cl)cc2)nc2n[nH]c(-c3ccc(Cl)cc3)c2c1-c1cccs1 quantitative_readout=35.1
molecule=COc1cc(-c2nc3cc(Cl)c(Cl)cc3[nH]2)ccc1OCc1nnc(-c2cccs2)o1 quantitative_readout=62.5
molecule=Cc1ccc(NC(=O)CN2CCN(c3ncnc4c3cnn4-c3ccccc3)CC2)cc1 quantitative_readout=63
molecule=COc1ccc(-c2nnc3ccc(N/N=C/c4ccc(O)cc4)nn23)cc1 quantitative_readout=30.3
molecule=CC(=O)c1cc(C(=O)c2ccccc2)n2c1ccc1ccccc12 quantitative_readout=55.5
molecule=Cc1cccc(-c2nc(Nc3cccc(S(N)(=O)=O)c3)c3ccccc3n2)c1 quantitative_readout=29.7
molecule=O=C(/C=C/c1cccc(OCc2ccccc2)c1)c1nc2ccccc2[nH]1 quantitative_readout=33.2
